Test system: E18 rat cortical neuron-glia co-culture;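 also: MBP fiber length per Olig2+ nucleus over MBP area × intensity per Olig2+ nucleus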
TEST NAME: fiber score / MBP score (myelination specific beyond OL differentiation) (ratio); higher = more myelination-specific MBP alignment
RECORDED CONDITIONS: 1 µM; treatment time: 8 days (DIV5-DIV13)
Classify by measured fiber score / MBP score: t if it is equal to or exceeds 0.8, f if it is smaller.

* COc1cc(C[C@@H](CO)[C@H](CO)Cc2ccc(O)c(OC)c2)ccc1O | t
* Clc1ccc(COC(Cn2ccnc2)c2ccc(Cl)cc2Cl)cc1 (configuration not stated) | f
* NNC(=O)c1ccncc1 | t
* CCN(Cc1ccncc1)C(=O)C(CO)c1ccccc1 (configuration not stated) [Tropicamide] | f
* C=C1/C(=C\C=C2/CCC[C@]3(C)[C@@H]([C@H](C)/C=C/[C@@H](O)C4CC4)CC[C@@H]23)C[C@@H](O)C[C@@H]1O | f

# evaluate next
Q: Does fiber score / MBP score meet or surpass 0.8 for CNC[C@H](O)c1ccc(O)c(O)c1 [Epinephrine] ?
Ans: t
